- Tested on: MDA-MB-231 complex spheroids, growth inhibition
- assay-overview: Anticancer human tumor MDA-MB-231 cell line growth inhibition [Asc];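 further: spheroids exposed to compounds for 7 days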
- cond: second compound 3 µM; first compound 0.00316 µM; stronger effect = lower value
Catalogue of compounds with associated viability, T/C

>  <compound>
COc1c(OCCCN2CCOCC2)ccc2c3n(c(=NC(=O)c4cnc(N)nc4)nc12)CCN3 + CCN1C(C(=O)NC23CCC(C(=O)O)(CC2)CC3)C(c2cccc(Cl)c2F)C2(C(=O)Nc3cc(Cl)ccc32)C12CCCCC2

>  <viability, T/C, %>
83.3

$$$$
>  <compound>
Cn1ncnc1[C@H]1c2n[nH]c(=O)c3cc(F)cc(c23)N[C@@H]1c1ccc(F)cc1 + CCN1C(C(=O)NC23CCC(C(=O)O)(CC2)CC3)C(c2cccc(Cl)c2F)C2(C(=O)Nc3cc(Cl)ccc32)C12CCCCC2

>  <viability, T/C, %>
94.4

$$$$
>  <compound>
NC1CCC(NC2CC2c2ccccc2)CC1 (stereo not drawn) + CCN1C(C(=O)NC23CCC(C(=O)O)(CC2)CC3)C(c2cccc(Cl)c2F)C2(C(=O)Nc3cc(Cl)ccc32)C12CCCCC2

>  <viability, T/C, %>
89.8

$$$$

* * *

- System: MDA-MB-231 complex spheroids, growth inhibition
- assay-overview: Anticancer human tumor MDA-MB-231 cell line growth inhibition [Asc];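 further: spheroids exposed to compounds for 7 days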
- cond: curve of first compound; second compound 0.949 µM
Catalogue of compounds with associated IC50
property-name: IC50 (nM)

>  <compound>
CCN1CCN(Cc2ccc(Nc3ncc(F)c(-c4cc(F)c5nc(C)n(C(C)C)c5c4)n3)nc2)CC1 + CCN1C(C(=O)NC23CCC(C(=O)O)(CC2)CC3)C(c2cccc(Cl)c2F)C2(C(=O)Nc3cc(Cl)ccc32)C12CCCCC2

>  <property-name>
IC50

>  <unit-tag>
nM

>  <sign-qualifier>
>

>  <experimental-value>
1000

$$$$
>  <compound>
C=C(F)C(=O)N1CCN(c2nc(OCC3CCCN3C)nc3c2CCN(c2cccc4cccc(Cl)c24)C3)CC1CC#N (centres undefined) + CCN1C(C(=O)NC23CCC(C(=O)O)(CC2)CC3)C(c2cccc(Cl)c2F)C2(C(=O)Nc3cc(Cl)ccc32)C12CCCCC2

>  <property-name>
IC50

>  <unit-tag>
nM

>  <sign-qualifier>
=

>  <experimental-value>
3670

$$$$
>  <compound>
C=CC(=O)N1CCN(c2nc(=O)n(-c3c(C)ccnc3C(C)C)c3nc(-c4c(O)cccc4F)c(F)cc23)C(C)C1 (centres undefined) + CCN1C(C(=O)NC23CCC(C(=O)O)(CC2)CC3)C(c2cccc(Cl)c2F)C2(C(=O)Nc3cc(Cl)ccc32)C12CCCCC2

>  <property-name>
IC50

>  <unit-tag>
nM

>  <sign-qualifier>
>

>  <experimental-value>
10000

$$$$
>  <compound>
COc1c(OCCCN2CCOCC2)ccc2c3n(c(=NC(=O)c4cnc(N)nc4)nc12)CCN3 + CCN1C(C(=O)NC23CCC(C(=O)O)(CC2)CC3)C(c2cccc(Cl)c2F)C2(C(=O)Nc3cc(Cl)ccc32)C12CCCCC2

>  <property-name>
IC50

>  <unit-tag>
nM

>  <sign-qualifier>
=

>  <experimental-value>
90.8

$$$$
>  <compound>
NC(=O)C(=Cn1cnc(-c2cc(C(F)(F)F)cc(C(F)(F)F)c2)n1)c1cncnc1 + CCN1C(C(=O)NC23CCC(C(=O)O)(CC2)CC3)C(c2cccc(Cl)c2F)C2(C(=O)Nc3cc(Cl)ccc32)C12CCCCC2

>  <property-name>
IC50

>  <unit-tag>
nM

>  <sign-qualifier>
=

>  <experimental-value>
84.5

$$$$
>  <compound>
Cn1ncnc1[C@H]1c2n[nH]c(=O)c3cc(F)cc(c23)N[C@@H]1c1ccc(F)cc1 + CCN1C(C(=O)NC23CCC(C(=O)O)(CC2)CC3)C(c2cccc(Cl)c2F)C2(C(=O)Nc3cc(Cl)ccc32)C12CCCCC2

>  <property-name>
IC50

>  <unit-tag>
nM

>  <sign-qualifier>
>

>  <experimental-value>
100

$$$$
>  <compound>
CNC(C)C(=O)NC1CN(S(=O)(=O)c2cccc(S(=O)(=O)N3CCC4CCC(C(=O)NC(c5ccccc5)c5ccccc5)N4C(=O)C(NC(=O)C(C)NC)C3)c2)CCC2CCC(C(=O)NC(c3ccccc3)c3ccccc3)N2C1=O (centres undefined) + CCN1C(C(=O)NC23CCC(C(=O)O)(CC2)CC3)C(c2cccc(Cl)c2F)C2(C(=O)Nc3cc(Cl)ccc32)C12CCCCC2

>  <property-name>
IC50

>  <unit-tag>
nM

>  <sign-qualifier>
<

>  <experimental-value>
3.16

$$$$
>  <compound>
NC1CCC(NC2CC2c2ccccc2)CC1 (centres undefined) + CCN1C(C(=O)NC23CCC(C(=O)O)(CC2)CC3)C(c2cccc(Cl)c2F)C2(C(=O)Nc3cc(Cl)ccc32)C12CCCCC2

>  <property-name>
IC50

>  <unit-tag>
nM

>  <sign-qualifier>
>

>  <experimental-value>
100

$$$$
>  <compound>
O=C(c1ccc(F)c(F)c1Nc1ccc(I)cc1F)N1CC(O)([C@@H]2CCCCN2)C1 + CCN1C(C(=O)NC23CCC(C(=O)O)(CC2)CC3)C(c2cccc(Cl)c2F)C2(C(=O)Nc3cc(Cl)ccc32)C12CCCCC2

>  <property-name>
IC50

>  <unit-tag>
nM

>  <sign-qualifier>
=

>  <experimental-value>
36

$$$$
